- measured-on: T1, 4H3020-AA
- T1 chain: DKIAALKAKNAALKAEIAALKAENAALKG
- run-description: two-hybrid library CCmax;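 also: natural log of median RNA to DNA barcode read ratio; higher means stronger binding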
- condition-summary: mean of both orientations
// NB: equality with -1 counts as -1; only interaction score strictly below is 1

binder="DENAALEAEIAALKAENAALEAKIAALKG [4H1110-AA]" group=-1
binder="DKIAALKAKIAALKAENAALEAEIAALKG [4H2898-AA]" group=-1
binder="DKIAALKAENAALEAKIAALEAEIAALEG [4H2721-AA]" group=1
binder="DENAALEAEIAALKAKIAALKAKNAALKG [4H1136-AA]" group=1
binder="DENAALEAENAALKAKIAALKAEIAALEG [4H1257-AA]" group=1
binder="DKIAALKAEIAALEAKIAALEAKNAALKG [4H2600-AA]" group=-1
binder="DKIAALKAENAALEAKNAALKAKIAALKG [4H2750-AA]" group=1
binder="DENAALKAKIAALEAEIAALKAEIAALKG [4H1802-AA]" group=1
binder="DEIAALEAENAALEAEIAALKAENAALKG [4H140-AA]" group=-1
